test: Long-term/accelerated stability (sealed, 25° C./60% RH and 40° C./75% RH); details: 25° C./60% RH and 40° C./75% RH, 6 months
readout-type: physical stability

CCO[C@H]1C[C@H]2CC[C@@](c3ccc(C(=O)O)cc3)(C1)N2Cc1c(OC)cc(C)c2[nH]ccc12.Cl [crystal form III of the hydrochloride] ... good
CCO[C@H]1C[C@H]2CC[C@@](c3ccc(C(=O)O)cc3)(C1)N2Cc1c(OC)cc(C)c2[nH]ccc12.Cl [crystal form II of the hydrochloride] ... good
CCO[C@H]1C[C@H]2CC[C@@](c3ccc(C(=O)O)cc3)(C1)N2Cc1c(OC)cc(C)c2[nH]ccc12.O=C(O)/C=C/C(=O)O [crystal form I of the fumarate] ... good

---

experiment: Long-term/accelerated stability (sealed, 25° C./60% RH and 40° C./75% RH); details: 25° C./60% RH and 40° C./75% RH, 6 months
readout-type: chemical stability

CCO[C@H]1C[C@H]2CC[C@@](c3ccc(C(=O)O)cc3)(C1)N2Cc1c(OC)cc(C)c2[nH]ccc12.Cl [crystal form III of the hydrochloride] ... good
CCO[C@H]1C[C@H]2CC[C@@](c3ccc(C(=O)O)cc3)(C1)N2Cc1c(OC)cc(C)c2[nH]ccc12.Cl [crystal form II of the hydrochloride] ... good
CCO[C@H]1C[C@H]2CC[C@@](c3ccc(C(=O)O)cc3)(C1)N2Cc1c(OC)cc(C)c2[nH]ccc12.O=C(O)/C=C/C(=O)O [crystal form I of the fumarate] ... good

---

assay: Long-term/accelerated stability (sealed, 25° C./60% RH and 40° C./75% RH); settings: 40° C., 75% RH, sealed, 2 months
Measured Purity % of individual entries
Quick reminder: number only, in %, skip the unit.

Reference set (2 entries):
CCO[C@H]1C[C@H]2CC[C@@](c3ccc(C(=O)O)cc3)(C1)N2Cc1c(OC)cc(C)c2[nH]ccc12.Cl [crystal form III of the hydrochloride] ... 99.5
CCO[C@H]1C[C@H]2CC[C@@](c3ccc(C(=O)O)cc3)(C1)N2Cc1c(OC)cc(C)c2[nH]ccc12.Cl [crystal form II of the hydrochloride] ... 100.0

Asked: What value of Purity % has been recorded for this entry: CCO[C@H]1C[C@H]2CC[C@@](c3ccc(C(=O)O)cc3)(C1)N2Cc1c(OC)cc(C)c2[nH]ccc12.O=C(O)/C=C/C(=O)O [crystal form I of the fumarate]
Given back: 99.9

Asked: Continue with CCO[C@H]1C[C@H]2CC[C@@](c3ccc(C(=O)O)cc3)(C1)N2Cc1c(OC)cc(C)c2[nH]ccc12.Cc1ccc(S(=O)(=O)O)cc1 [crystal form I of the p-toluenesulfonate]
Given back: 99.8

Asked: Continue with CCO[C@H]1C[C@H]2CC[C@@](c3ccc(C(=O)O)cc3)(C1)N2Cc1c(OC)cc(C)c2[nH]ccc12.O=P(O)(O)O [crystal form II of the phosphate]
Given back: 97.7

---

Measured Purity % of individual entries
assay: Influencing factor stability (open flasks, light, high temperature, high humidity, 30 days); conditions: 60° C., 10 days, open flask
Quick reminder: number only, in %, skip the unit.

Reference set (3 entries):
CCO[C@H]1C[C@H]2CC[C@@](c3ccc(C(=O)O)cc3)(C1)N2Cc1c(OC)cc(C)c2[nH]ccc12.Cl [crystal form III of the hydrochloride] ... 99.1
CCO[C@H]1C[C@H]2CC[C@@](c3ccc(C(=O)O)cc3)(C1)N2Cc1c(OC)cc(C)c2[nH]ccc12.O=C(O)/C=C/C(=O)O [crystal form I of the fumarate] ... 99.7
CCO[C@H]1C[C@H]2CC[C@@](c3ccc(C(=O)O)cc3)(C1)N2Cc1c(OC)cc(C)c2[nH]ccc12.Cl [crystal form II of the hydrochloride] ... 98.8

Query compound follows.
Asked: What value of Purity % has been recorded for this entry: CCO[C@H]1C[C@H]2CC[C@@](c3ccc(C(=O)O)cc3)(C1)N2Cc1c(OC)cc(C)c2[nH]ccc12.Cc1ccc(S(=O)(=O)O)cc1 [crystal form I of the p-toluenesulfonate]
Given back: 99.8

---

Measured Purity % of individual entries
experiment: Long-term/accelerated stability (sealed, 25° C./60% RH and 40° C./75% RH); settings: 40° C., 75% RH, sealed, 1 month
Quick reminder: number only, in %, skip the unit.

CCO[C@H]1C[C@H]2CC[C@@](c3ccc(C(=O)O)cc3)(C1)N2Cc1c(OC)cc(C)c2[nH]ccc12.O=P(O)(O)O [crystal form II of the phosphate] ... 98.7
CCO[C@H]1C[C@H]2CC[C@@](c3ccc(C(=O)O)cc3)(C1)N2Cc1c(OC)cc(C)c2[nH]ccc12.Cl [crystal form II of the hydrochloride] ... 100.0
CCO[C@H]1C[C@H]2CC[C@@](c3ccc(C(=O)O)cc3)(C1)N2Cc1c(OC)cc(C)c2[nH]ccc12.O=C(O)/C=C/C(=O)O [crystal form I of the fumarate] ... 99.9
CCO[C@H]1C[C@H]2CC[C@@](c3ccc(C(=O)O)cc3)(C1)N2Cc1c(OC)cc(C)c2[nH]ccc12.Cc1ccc(S(=O)(=O)O)cc1 [crystal form I of the p-toluenesulfonate] ... 100.0

Query compound follows.
Asked: What value of Purity % has been recorded for this entry: CCO[C@H]1C[C@H]2CC[C@@](c3ccc(C(=O)O)cc3)(C1)N2Cc1c(OC)cc(C)c2[nH]ccc12.Cl [crystal form III of the hydrochloride]
Given back: 99.6

---

Measured Purity % of individual entries
assay: Influencing factor stability (open flasks, light, high temperature, high humidity, 30 days); conditions: Light exposure (4500 Lux), 5 days, open flask
Quick reminder: number only, in %, skip the unit.

Reference set (3 entries):
CCO[C@H]1C[C@H]2CC[C@@](c3ccc(C(=O)O)cc3)(C1)N2Cc1c(OC)cc(C)c2[nH]ccc12.Cl [crystal form II of the hydrochloride] ... 99.8
CCO[C@H]1C[C@H]2CC[C@@](c3ccc(C(=O)O)cc3)(C1)N2Cc1c(OC)cc(C)c2[nH]ccc12.O=C(O)/C=C/C(=O)O [crystal form I of the fumarate] ... 100.0
CCO[C@H]1C[C@H]2CC[C@@](c3ccc(C(=O)O)cc3)(C1)N2Cc1c(OC)cc(C)c2[nH]ccc12.Cl [crystal form III of the hydrochloride] ... 99.2

Query molecule follows.
Asked: What value of Purity % has been recorded for this entry: CCO[C@H]1C[C@H]2CC[C@@](c3ccc(C(=O)O)cc3)(C1)N2Cc1c(OC)cc(C)c2[nH]ccc12.Cc1ccc(S(=O)(=O)O)cc1 [crystal form I of the p-toluenesulfonate]
Given back: 99.9

---

Measured Purity % of individual entries
test: Long-term/accelerated stability (sealed, 25° C./60% RH and 40° C./75% RH); settings: 40° C., 75% RH, sealed, 3 months
Quick reminder: number only, in %, skip the unit.

Reference set (3 entries):
CCO[C@H]1C[C@H]2CC[C@@](c3ccc(C(=O)O)cc3)(C1)N2Cc1c(OC)cc(C)c2[nH]ccc12.O=C(O)/C=C/C(=O)O [crystal form I of the fumarate] ... 99.9
CCO[C@H]1C[C@H]2CC[C@@](c3ccc(C(=O)O)cc3)(C1)N2Cc1c(OC)cc(C)c2[nH]ccc12.Cl [crystal form II of the hydrochloride] ... 99.9
CCO[C@H]1C[C@H]2CC[C@@](c3ccc(C(=O)O)cc3)(C1)N2Cc1c(OC)cc(C)c2[nH]ccc12.Cl [crystal form III of the hydrochloride] ... 99.5

Query compound follows.
Asked: What value of Purity % has been recorded for this entry: CCO[C@H]1C[C@H]2CC[C@@](c3ccc(C(=O)O)cc3)(C1)N2Cc1c(OC)cc(C)c2[nH]ccc12.Cc1ccc(S(=O)(=O)O)cc1 [crystal form I of the p-toluenesulfonate]
Given back: 99.8

---

assay: Influencing factor stability (open flasks, light, high temperature, high humidity, 30 days); conditions: 75% RH, 10 days, open flask
Measured Purity % of individual entries
Quick reminder: number only, in %, skip the unit.

CCO[C@H]1C[C@H]2CC[C@@](c3ccc(C(=O)O)cc3)(C1)N2Cc1c(OC)cc(C)c2[nH]ccc12.O=C(O)/C=C/C(=O)O [crystal form I of the fumarate] ... 99.9
CCO[C@H]1C[C@H]2CC[C@@](c3ccc(C(=O)O)cc3)(C1)N2Cc1c(OC)cc(C)c2[nH]ccc12.Cc1ccc(S(=O)(=O)O)cc1 [crystal form I of the p-toluenesulfonate] ... 99.9

Asked: What value of Purity % has been recorded for this entry: CCO[C@H]1C[C@H]2CC[C@@](c3ccc(C(=O)O)cc3)(C1)N2Cc1c(OC)cc(C)c2[nH]ccc12.Cl [crystal form II of the hydrochloride]
Given back: 100.0

Asked: Continue with CCO[C@H]1C[C@H]2CC[C@@](c3ccc(C(=O)O)cc3)(C1)N2Cc1c(OC)cc(C)c2[nH]ccc12.Cl [crystal form III of the hydrochloride]
Given back: 99.6
